Measured values drawn from PubChem BioAssay AID2060508 for this set.

test system: 454973-116-R2-J3-PDC spheroids, viability, % test/control; assay: Anticancer human tumor 454973-116-R2-J3-PDC patient-derived pancreatic carcinoma cell line growth inhibition [GQUAD]; conditions: curve of first compound; second compound 1 µM; spheroids with HUVEC and MSC;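 note: spheroids exposed to compounds for seven days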
Here the recorded IC50 is given for each entry.

Consider the reported IC50 for these molecules:
| MOLECULE | IC50 |
| --- | --- |
| CCCS(=O)(=O)Nc1ccc(F)c(C(=O)c2c[nH]c3ncc(-c4ccc(Cl)cc4)cc23)c1F + Cc1[nH]c2ccc(F)cc2c1-c1nc2c3cccnc3c3ncccc3c2[nH]1 | 6.3 µM |
| CC(C)n1c(=O)n(C)c2cnc3cc(F)c(-c4ccc(OCCCN5CCCCC5)nc4)cc3c21 + Cc1[nH]c2ccc(F)cc2c1-c1nc2c3cccnc3c3ncccc3c2[nH]1 | > 10 µM |
| CC(C)n1c(=O)n(C)c2cnc3cc(F)c(-c4ccc(OCCCN5CCCCC5)nc4)cc3c21 + CN(C)c1ccc(Nc2c3ccc(NC(=O)CCN4CCCC4)cc3nc3cc(NC(=O)CCN4CCCC4)ccc23)cc1 | > 10 µM |
| COc1ncnc(C2CC2)c1-c1ncc2cnn(Cc3ccc(-c4nc(C(F)(F)F)cn4C(C)C)cc3)c2n1 + Cc1cnc(CNC(=O)c2c(=O)c3ccc(N4CCCN(C)CC4)nc3n3c2sc2ccccc23)cn1 | > 10 µM |

Continue with the molecule presented below.
// query Requested field: IC50. Item: O=C(NO)c1cnc(N2CCN(S(=O)(=O)c3ccc4ccccc4c3)CC2)nc1 + CN(C)c1ccc(Nc2c3ccc(NC(=O)CCN4CCCC4)cc3nc3cc(NC(=O)CCN4CCCC4)ccc23)cc1
// result 0.195 µM
